- Test system: PFSK-1 (Other Solid Carcinomas);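 also: after 72 h of two-drug dosing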
- EXPERIMENTAL_PROTOCOL: Bliss excess, mean over the matrix (fraction); higher = more synergy
VALUE_KIND: Bliss excess
Give the value as a plain number.

Reported Bliss excess for PFSK-1 (Other Solid Carcinomas), given Cn1cnc2c(F)c(Nc3ccc(Br)cc3Cl)c(C(=O)NOCCO)cc21 [Selumetinib] + CCN(CCO)CCCOc1ccc2c(Nc3cc(CC(=O)Nc4cccc(F)c4)[nH]n3)ncnc2c1 [AZD2811] (first compound max 10 µM, 7x7, partner max 1 µM) ?
-0.0438

Again, but for Cc1nc(Nc2ncc(C(=O)Nc3c(C)cccc3Cl)s2)cc(N2CCN(CCO)CC2)n1 [Dasatinib] + CC(=O)Nc1cccc(-n2c(=O)n(C3CC3)c(=O)c3c(Nc4ccc(I)cc4F)n(C)c(=O)c(C)c32)c1 [Trametinib] (first compound max 2 µM, 7x7, partner max 1 µM)
-0.095

Again, but for CN(CCO)CC[C@H](CSc1ccccc1)Nc1ccc(S(=O)(=O)NC(=O)c2ccc(N3CCC([C@@H](O)c4ccccc4-c4ccc(Cl)cc4)CC3)cc2)cc1S(=O)(=O)C(F)(F)F [AZD4320] + C1CN(CCC1(C(=O)N[C@@H](CCO)C2=CC=C(C=C2)Cl)N)C3=NC=NC4=C3C=CN4 [Capivasertib] (first compound max 1 µM, 7x7, partner max 3 µM)
0.078

Again, but for C=CCn1c(=O)c2cnc(Nc3ccc(N4CCN(C)CC4)cc3)nc2n1-c1cccc(C(C)(C)O)n1 [AZD1775] + C1CN(CCC1(C(=O)N[C@@H](CCO)C2=CC=C(C=C2)Cl)N)C3=NC=NC4=C3C=CN4 [Capivasertib] (first compound max 3 µM, partner max 3 µM)
-0.0268

Again, but for CN(CCO)CC[C@H](CSc1ccccc1)Nc1ccc(S(=O)(=O)NC(=O)c2ccc(N3CCC([C@@H](O)c4ccccc4-c4ccc(Cl)cc4)CC3)cc2)cc1S(=O)(=O)C(F)(F)F [AZD4320] + CN(C)CCCOc1ccc(-c2ccc3ncc4c(c3c2)n(C2CCOCC2)c(=O)n4C)cn1 [AZD0156] (first compound max 1 µM, 7x7, partner max 1 µM)
0.0427

Again, but for CS(=O)(=O)CCNCc1ccc(-c2ccc3ncnc(Nc4ccc(OCc5cccc(F)c5)c(Cl)c4)c3c2)o1 [Lapatinib] + NC1(c2ccc(-c3nc4ccn5c(=O)[nH]nc5c4cc3-c3ccccc3)cc2)CCC1 [MK-2206] (first compound max 10 µM, 7x7, partner max 10 µM)
-0.0286

Again, but for COc1nnc2ccc(N3CCC(c4ccc(OCCN5CCN(C)C(=O)[C@H]5C)cc4)CC3)nn12 [AZD5153] + CC1(C)CCC(CN2CCN(c3ccc(C(=O)NS(=O)(=O)c4ccc(NCC5CCOCC5)c([N+](=O)[O-])c4)c(Oc4cnc5[nH]ccc5c4)c3)CC2)=C(c2ccc(Cl)cc2)C1 [Venetoclax] (first compound max 1 µM, 7x7, partner max 1 µM)
-0.0853

Again, but for COc1nnc2ccc(N3CCC(c4ccc(OCCN5CCN(C)C(=O)[C@H]5C)cc4)CC3)nn12 [AZD5153] + C[C@@H]1COCCN1C2=NC(=NC(=C2)C3(CC3)[S@](=N)(=O)C)C4=C5C=CNC5=NC=C4 [AZD6738] (first compound max 1 µM, 7x7, partner max 10 µM)
-0.0115

Again, but for Cc1c2c(nn1C)CSCc1cc(n(C)n1)CSc1cc(c3ccccc3c1)OCCCc1c(C(=O)O)n(C)c3c-2c(Cl)ccc13 [AZD5991] + C[C@@H]1COCCN1C2=NC(=NC(=C2)C3(CC3)[S@](=N)(=O)C)C4=C5C=CNC5=NC=C4 [AZD6738] (first compound max 1 µM, 7x7, partner max 10 µM)
0.0139

Again, but for COc1nnc2ccc(N3CCC(c4ccc(OCCN5CCN(C)C(=O)[C@H]5C)cc4)CC3)nn12 [AZD5153] + CCN(CCO)CCCOc1ccc2c(Nc3cc(CC(=O)Nc4cccc(F)c4)[nH]n3)ncnc2c1 [AZD2811] (first compound max 1 µM, 7x7, partner max 1 µM)
-0.0478

Again, but for CN(CCO)CC[C@H](CSc1ccccc1)Nc1ccc(S(=O)(=O)NC(=O)c2ccc(N3CCC([C@@H](O)c4ccccc4-c4ccc(Cl)cc4)CC3)cc2)cc1S(=O)(=O)C(F)(F)F [AZD4320] + C=CCn1c(=O)c2cnc(Nc3ccc(N4CCN(C)CC4)cc3)nc2n1-c1cccc(C(C)(C)O)n1 [AZD1775] (first compound max 1 µM, partner max 1 µM)
0.0344
